Numbers sourced from the kinase profiling compilation of Christmann-Franck et al. (2016).

biological target: EPHA4 (human); assay: radiometric filter-binding kinase assay, Kinase HotSpot; conditions: compound 0.5 µM; ATP 10 µM
Some compounds, each annotated with its measured residual activity.

# Molecule Smiles, residual activity [%]
rows = [
    ("COc1cc2ncnc(Nc3ccc(Oc4ccccc4)cc3)c2cc1OC", 106),
    ("N#Cc1c[nH]c2c[nH]/c(=N\\Cc3cccnc3)cc2/c1=N\\c1ccc(F)c(Cl)c1", 92.8),
    ("C[C@@H]1CCN(C(=O)CC#N)C[C@@H]1N(C)c1ncnc2[nH]ccc12", 99.1),
    ("NC(=O)c1cccc(-c2cc(Nc3ccc(OC(F)(F)F)cc3)ncn2)c1", 94.4),
    ("Fc1ccc(-c2nc3n(c2-c2ccncc2)CCS3)cc1", 106),
    ("COc1ccc(S(=O)(=O)N(CCO)c2ccccc2CN(C)C/C=C/c2ccc(Cl)cc2)cc1", 99.2),
    ("Cc1nc(-c2ccccc2)c(-c2ccncc2)o1", 112),
    ("CN(C)S(=O)(=O)c1ccc2c(c1)/C(=C/c1cc3c([nH]1)CCCC3)C(=O)N2", 91.3),
    ("CN(C)CCCn1cc(C2=C(c3c[nH]c4ccccc34)C(=O)NC2=O)c2ccccc21", 88.2),
    ("O=C1c2ccccc2-c2nc3nnnn3nc21", 61.1),
    ("CN(C)c1ccc(/C=C2\\C(=O)Nc3ccccc32)cc1", 95.2),
    ("O=C1NC(=O)c2c1c1c3ccccc3[nH]c1n1cncc21", 98.6),
    ("O=C1Nc2ccc(Br)cc2/C1=C\\c1cc2c([nH]1)CCCC2", 94.8),
    ("COc1cc(Nc2c(C#N)cnc3cc(OCCCN4CCN(C)CC4)c(OC)cc23)c(Cl)cc1Cl", 27),
    ("N#C/C(=C\\c1ccc(O)c(O)c1)C(=O)NCc1ccccc1", 99.5),
    ("CS(=O)(=O)CCNCc1ccc(-c2ccc3ncnc(Nc4ccc(OCc5cccc(F)c5)c(Cl)c4)c3c2)o1", 101),
    ("COc1cc2ncnc(Nc3ccc(OCc4ccccc4)cc3)c2cc1OC", 98.5),
    ("COc1ccc(Cl)cc1NC(=O)Nc1cc(C)nc2ccccc12", 104),
    ("COc1ccc(C(=O)Nc2sc3c(c2C(N)=O)CCCC3)cc1OC", 104),
    ("COc1ccc2c(c1)/C(=C/c1cnc[nH]1)C(O)=N2", 98.2),
    ("CCCCc1c(-c2ccc(OC)cc2)[nH]c2nccnc12", 85.5),
    ("Ic1cccc(CSc2nnc(-c3ccncc3)o2)c1", 105),
]
